Target: T1, HA-GCN4 hAPRIL (amino acid residues 105-250) (human, UniProt O75888 105-250)
T1 construct: Bought (R&D Systems); also called HA-tagged GCN4 human APRIL; HA-GCN4-huAPRIL; not shown: N-terminal HA tag; GCN4 isoleucine zipper oligomerization domain
T1 sequence: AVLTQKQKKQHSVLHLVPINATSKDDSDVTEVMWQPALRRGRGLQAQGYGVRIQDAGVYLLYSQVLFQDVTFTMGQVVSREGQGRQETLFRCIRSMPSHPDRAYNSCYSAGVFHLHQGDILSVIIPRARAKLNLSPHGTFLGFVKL
Experiment: blocking ELISA, 4-parameter fit; blocked: human APRIL binding to human TACI-Fc
OBSERVED PROPERTY: IC50
Note: a bare number is incomplete; add the unit.

BINDER	IC50
monoclonal antibody 2922 (antibody, mouse IgG2, V domains shown) VH: QVQLHQSGPELVKPGASVKLSCKTSGYTFTSYDVFWVKQRPGQGLEWIGWIYPRDSSTKYNEKFKGKATLTVDTSSSTAYMELHSLTSEDSAVYFCAKEGYDYDKRGFDYWGQGTTLTVSS VL: DIVLTQSPASLAVSLGQRAIISCKASQSVSFAGTNLMHWYQQRPGQQPKLLIYRASNLEPGVPTRFSGSGSRTDFTLNIHPVEEDDAATYYCQQSREYPWTFGGGTKLEIK	31.6 nM
monoclonal antibody 3125 (antibody, mouse IgG2, V domains shown) VH: QVQLQQSGAELVRPGASVTLSCKASGYTFTDYEMHWVKQTPVHGLEWIGAIDPETGGTAYNQRFKGKAILTTDKSSITAYMELRSLTSEDSAVYYCTRWNDGDYWGQGTTLTVSS VL: DVVMTQTPLSLSVTIGQPASISCKSSQSLLYSNGKTYLNWFQQRPGQSPKRLMYQVSKLDPGIPDRFSGSGSETDFTLKISRVEAEDLGLYYCLQGTYYPYTFGGGTKLEIK	113 nM

Okay, next one:
Exercise: Need IC50 of monoclonal antibody 3530 (antibody, mouse IgG2, V domains shown) VH: QVQLQQSGAELVRPGASVKLSCKASGYTFTDHEMHWVRQTPVHGLEWIGVIDPDTGDTTYNQKFKGKATLTADKSSSTAYMDLRSLTSEDSAVFYCTRWTGGDYWGHGTTLTVSS VL: DAVMTQTPLSLSVTIGQPASISCKSSQSLLYSDGKTYLNWFQQRPGQSPKRLMYQVSKLDPGIPDRFSGSGSETDFTLKISRVEAEDLGVYYCLQGTYYPYTFGSGTKLEIK , thanks.
Solution: 4.95 nM
